subject of test: human TNFα (Homo sapiens)
Construct: purchased Biosource, Camarillo, Calif
method notes: p55 Receptor/IgG fusion protein binding assay (inhibition of TNFα capture by p55-Ig coated plate)
experimental context: inhibition of binding of TNFα to p55TNFr-IgG chimeric construct; lowest value observed; read-out: minimum IC50 observed
Ends that are not written are not given here.
observation type: pIC50
To interpret pIC50, take it as minus log10 of a concentration measured in moles per litre.

Some substances with recorded pIC50:
[[record]]
substance = "SASSSVSFMYA-NH2 [SEQ ID NO:4]"
subject_of_test = "human TNFα (Homo sapiens)"
observation_type = "pIC50"
measured_result = 4.13

[[record]]
substance = "Ac-VIWRGGSTDYNAAFMS-NH2 [SEQ ID NO:20]"
subject_of_test = "human TNFα (Homo sapiens)"
observation_type = "pIC50"
measured_result = 4.43

[[record]]
substance = "Ac-NINPNNGGTIYNQFKFGKG-NH2 [SEQ ID NO:1]"
subject_of_test = "human TNFα (Homo sapiens)"
observation_type = "pIC50"
measured_result = 5.10


Param readout = pIC50; param system = human TNFα (Homo sapiens); param query = Ac-SASSSVSFMYW-NH2 [SEQ ID NO:2] ; response: value
5.05

Ok, now SEQ ID NO:3: SEQ ID NO:3 in which the carboxy terminal tryptophan is tryptophan amide; comprises a fragment of SEQ ID NO:2 (SAASSVSFMYW-NH2)
5.00

Ok, now Ac-LLIYYVSNRYTGV-NH2 [SEQ ID NO:18]
4.54

Ok, now Ac-LLIYYVSNRYTG-NH2 [SEQ ID NO:17]
4.29

====

subject of test: human TNFα (Homo sapiens, UniProt P01375)
Construct: purchased Biosource, Camarillo, Calif
Sequence (P01375 77-233 limits assumed): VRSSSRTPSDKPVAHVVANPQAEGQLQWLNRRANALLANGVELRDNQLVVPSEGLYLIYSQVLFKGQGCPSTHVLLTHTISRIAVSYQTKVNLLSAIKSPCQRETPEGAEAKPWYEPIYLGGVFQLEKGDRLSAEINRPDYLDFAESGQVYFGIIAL
method notes: p55 Receptor/IgG fusion protein binding assay (inhibition of TNFα capture by p55-Ig coated plate)
experimental context: inhibition of binding of TNFα to p55TNFr-IgG chimeric construct; TNFα 25 ng/ml; read-out: IC50 (concentration necessary to inhibit TNFα by 50%)
Ends that are not written are not given here.
substances and their reported IC50
Report only the number, with the unit µM understood.

Some substances with recorded IC50:
[[record]]
substance = "SEQ ID NO:3: SEQ ID NO:3 in which the carboxy terminal tryptophan is tryptophan amide; comprises a fragment of SEQ ID NO:2 (SAASSVSFMYW-NH2)"
observation_type = "IC50"
measured_result = 23

[[record]]
substance = "Ac-SASSSVSFMYW-NH2 [SEQ ID NO:2]"
observation_type = "IC50"
measured_result = 29


Let's switch to this substance now.
Value lookup for IC50; key = Ac-LLIYYVSNRYTGV-NH2 [SEQ ID NO:18]
307

====

subject of test: human TNFα (Homo sapiens)
Construct: purchased Biosource, Camarillo, Calif
method notes: p55 Receptor/IgG fusion protein binding assay (inhibition of TNFα capture by p55-Ig coated plate)
experimental context: inhibition of binding of TNFα to p55TNFr-IgG chimeric construct; highest value observed; read-out: maximum IC50 observed
Ends that are not written are not given here.
substances and their reported IC50
Report only the number, with the unit µM understood.

Some substances with recorded IC50:
[[record]]
substance = "Ac-LLIYYVSNRYTGV-NH2 [SEQ ID NO:18]"
observation_type = "IC50"
measured_result = 829

[[record]]
substance = "Ac-LLIYYVSNRYTG-NH2 [SEQ ID NO:17]"
observation_type = "IC50"
measured_result = 210

[[record]]
substance = "SASSSVSFMYA-NH2 [SEQ ID NO:4]"
observation_type = "IC50"
measured_result = 87

[[record]]
substance = "Ac-SASSSVSFMYW-NH2 [SEQ ID NO:2]"
observation_type = "IC50"
measured_result = 60

[[record]]
substance = "Ac-VIWRGGSTDYNAAFMS-NH2 [SEQ ID NO:20]"
observation_type = "IC50"
measured_result = 150


Value lookup for IC50; key = Ac-NINPNNGGTIYNQFKFGKG-NH2 [SEQ ID NO:1]
91

Ok, now SEQ ID NO:3: SEQ ID NO:3 in which the carboxy terminal tryptophan is tryptophan amide; comprises a fragment of SEQ ID NO:2 (SAASSVSFMYW-NH2)
33

====

subject of test: human TNFα (Homo sapiens)
Construct: purchased Biosource, Camarillo, Calif
method notes: p55 Receptor/IgG fusion protein binding assay (inhibition of TNFα capture by p55-Ig coated plate)
experimental context: inhibition of binding of TNFα to p55TNFr-IgG chimeric construct; TNFα 25 ng/ml; read-out: IC50 (concentration necessary to inhibit TNFα by 50%)
Ends that are not written are not given here.
observation type: pIC50
To interpret pIC50, take it as minus log10 of a concentration measured in moles per litre.

[[record]]
substance = "Ac-VIWRGGSTDYNAAFMS-NH2 [SEQ ID NO:20]"
observation_type = "pIC50"
measured_result = 4.07


Value lookup for pIC50; key = Ac-LLIYYVSNRYTG-NH2 [SEQ ID NO:17]
3.81

Ok, now SASSSVSFMYA-NH2 [SEQ ID NO:4]
4.10

Ok, now Ac-NINPNNGGTIYNQFKFGKG-NH2 [SEQ ID NO:1]
4.70
